Experimental Target: T1, human 5T4-His protein (human, UniProt Q13641 32-355)
T1 construct: also called recombinant 5T4 protein (human 5T4-his tag); human 5T4 protein; not shown: His tag
T1 sequence (looked up): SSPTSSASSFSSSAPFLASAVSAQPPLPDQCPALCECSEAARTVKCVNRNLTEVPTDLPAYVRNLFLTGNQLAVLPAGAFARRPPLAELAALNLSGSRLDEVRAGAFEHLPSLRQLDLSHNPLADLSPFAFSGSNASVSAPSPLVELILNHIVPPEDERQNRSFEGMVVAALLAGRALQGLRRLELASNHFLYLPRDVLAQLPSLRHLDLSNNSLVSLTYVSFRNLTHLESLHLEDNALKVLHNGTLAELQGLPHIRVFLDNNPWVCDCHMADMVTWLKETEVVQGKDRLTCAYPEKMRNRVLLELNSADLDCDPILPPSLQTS
Assay Info: ELISA, coated 5T4-His
# key: entry, value: EC50
Property Label: EC50 (ng/mL)

INSERT INTO measurements (binder, units, recorded_value) VALUES
  ('Hu14G12-37 (antibody, V domains shown, humanized) VH: QVQLVQSGAEVKKPGASVKVSCKASGYAFSSSWMNWVRQAPGQGLEWMGRIYREDGHTNYNGKFKGRVTMTADKSTTTAYMELSSLRSEDTAVYYCANGGAMDYWGQGTLVTVSS VL: DIQMTQSPSTLSASVGDRVTITCRASQDISNYLNWYQQKPGKAPKLLIYYTSRLHSGVPSRFSGSGSGTEYTLTISSLQPDDIATYFCQQDNTLPWTFGGGTKVEIK', 'ng/mL', 11),
  ('Hu14G12-32 (antibody, V domains shown, humanized) VH: QVQLVQSGAEVKKPGASVKVSCKASGYAFSSSWMNWVRQAPGQGLEWMGRIYREDGHTNYNGKFKGRVTMTADKSITTAYMELSRLRSDDTAVYYCANGGAMDYWGQGTLVTVSS VL: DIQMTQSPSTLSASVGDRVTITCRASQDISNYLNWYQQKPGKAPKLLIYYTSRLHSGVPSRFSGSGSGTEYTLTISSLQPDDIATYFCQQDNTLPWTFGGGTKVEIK', 'ng/mL', 9.3),
  ('Hu14G12-31 (antibody, V domains shown, humanized) VH: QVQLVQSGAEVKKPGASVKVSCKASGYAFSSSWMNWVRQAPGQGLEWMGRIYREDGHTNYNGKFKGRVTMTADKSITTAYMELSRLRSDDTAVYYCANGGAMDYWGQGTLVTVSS VL: DIVMTQSPDSLAVSLGERATINCRASQDISNYLNWYQQKPGQPPKLLIYYTSRLHSGVPDRFSGSGSGTDYTLTISSLQAEDIAVYFCQQDNTLPWTFGGGTKVEIK', 'ng/mL', 8.4);

meta.source: patent US20250154277A1
